- System: Enterococcus faecalis
- protocol text: Antibacterial activity against Enterococcus faecalis
- Format: functional

[
  {
    "compound": "C[C@@H](c1ccccc1)[C@@H]1NC(=O)CNC(=O)[C@H](CO)NC(=O)[C@@H]([C@@H](O)[C@@H]2CNC(N)N2[C@H]2O[C@H](COC(=O)CCC3CCCC3)[C@@H](O)[C@H](O)[C@@H]2O)NC(=O)[C@H]([C@@H](O)[C@@H]2CNC(N)N2)NC(=O)[C@@H](Cc2ccc(O[C@H]3O[C@H](CO)[C@@H](O[C@H]4O[C@H](CO)[C@@H](O)[C@H](O)[C@@H]4O)[C@H](O)[C@@H]3O)cc2)NC1=O (stereo not given in full)",
    "MIC": "> 64 µg/mL"
  },
  {
    "compound": "C[C@@H](c1ccccc1)[C@@H]1NC(=O)CNC(=O)[C@H](COC(=O)CCC2CCCC2)NC(=O)[C@@H]([C@@H](O)[C@@H]2CNC(N)N2[C@H]2O[C@H](CO)[C@@H](O)[C@H](O)[C@@H]2O)NC(=O)[C@H]([C@@H](O)[C@@H]2CNC(N)N2)NC(=O)[C@@H](Cc2ccc(O[C@H]3O[C@H](CO)[C@@H](O[C@H]4O[C@H](CO)[C@@H](O)[C@H](O)[C@@H]4O)[C@H](O)[C@@H]3O)cc2)NC1=O (stereo not given in full)",
    "MIC": "> 64 µg/mL"
  },
  {
    "compound": "C[C@@H](c1ccccc1)[C@@H]1NC(=O)CNC(=O)[C@H](COC(=O)C(c2ccccc2)c2ccccc2)NC(=O)[C@@H]([C@@H](O)[C@@H]2CNC(N)N2[C@H]2O[C@H](CO)[C@@H](O)[C@H](O)[C@@H]2O)NC(=O)[C@H]([C@@H](O)[C@@H]2CNC(N)N2)NC(=O)[C@@H](Cc2ccc(O[C@H]3O[C@H](CO)[C@@H](O[C@H]4O[C@H](CO)[C@@H](O)[C@H](O)[C@@H]4O)[C@H](O)[C@@H]3O)cc2)NC1=O (stereo not given in full)",
    "MIC": "> 64 µg/mL"
  },
  {
    "compound": "CCCC(CCC)C(=O)OC[C@H]1O[C@H](O[C@H]2[C@H](O)[C@H](O)[C@@H](Oc3ccc(C[C@H]4NC(=O)[C@H]([C@@H](C)c5ccccc5)NC(=O)CNC(=O)[C@H](CO)NC(=O)[C@@H]([C@@H](O)[C@@H]5CNC(N)N5[C@H]5O[C@H](CO)[C@@H](O)[C@H](O)[C@@H]5O)NC(=O)[C@H]([C@@H](O)[C@@H]5CNC(N)N5)NC4=O)cc3)O[C@@H]2CO)[C@@H](O)[C@@H](O)[C@@H]1O (stereo not given in full)",
    "MIC": "4 µg/mL"
  },
  {
    "compound": "CCCCCC(=O)OC[C@H]1O[C@H](N2C(N)NC[C@H]2[C@H](O)[C@H]2NC(=O)[C@H]([C@@H](O)[C@@H]3CNC(N)N3)NC(=O)[C@@H](Cc3ccc(O[C@H]4O[C@H](CO)[C@@H](O[C@H]5O[C@H](CO)[C@@H](O)[C@H](O)[C@@H]5O)[C@H](O)[C@@H]4O)cc3)NC(=O)[C@H]([C@@H](C)c3ccccc3)NC(=O)CNC(=O)[C@H](CO)NC2=O)[C@@H](O)[C@@H](O)[C@@H]1O (stereo not given in full)",
    "MIC": "> 64 µg/mL"
  }
]

These measurements were taken from ChEMBL document CHEMBL1146703.
